assay.info: self-splicing fitness, log relative to wild type (ln ratio); higher = more splicing; Tetrahymena group I intron in knt gene, E. coli kanamycin selection, DiMSum; sequences stand for … in CUCUCU…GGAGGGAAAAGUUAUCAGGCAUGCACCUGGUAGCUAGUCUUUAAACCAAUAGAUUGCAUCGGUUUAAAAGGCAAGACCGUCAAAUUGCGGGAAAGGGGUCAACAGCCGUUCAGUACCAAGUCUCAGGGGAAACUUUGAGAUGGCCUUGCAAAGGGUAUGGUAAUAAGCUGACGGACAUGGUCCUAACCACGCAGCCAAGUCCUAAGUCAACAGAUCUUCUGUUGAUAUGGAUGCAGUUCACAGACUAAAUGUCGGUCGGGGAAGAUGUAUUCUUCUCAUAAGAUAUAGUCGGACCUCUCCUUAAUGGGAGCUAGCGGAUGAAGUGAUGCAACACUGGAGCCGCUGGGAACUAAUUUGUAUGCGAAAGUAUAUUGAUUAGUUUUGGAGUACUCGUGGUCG;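 further: selection with 25 µg/mL kanamycin versus none on LB agar overnight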
test.conditions: 30 °C
measurement.name: self-splicing fitness (ln)
Write the value as a bare number.

Inquiry: What does the data say about its self-splicing fitness (ln)? Entry: GUUUAGCAAUAUUACGGCAG
Reply text: -2.12

Inquiry: Another sequence to look at: AAUGAGCAAUAUUACGACGA
Reply text: -2.44

Inquiry: Cool, now AAUCAGCAAUAUUACGUCAG
Reply text: -1.86

Inquiry: Record: UAAGAGCAAUAUUACGACUA
Reply text: -0.436

Inquiry: Same question for CGAGAGCAAUAUUACGUCUU please.
Reply text: -3.66

Inquiry: Param item: UGGCAGCAAUAUUACGUGGC
Reply text: -3.92

Inquiry: And what about the sequence AGUCAGCAAUAUUACGAAUA ?
Reply text: -0.962

Inquiry: Then CAGCAGCAAUAUUACGACUU ?
Reply text: -0.431

Inquiry: Please do the same for GGCCAGCAAUAUUACGUUAU as well.
Reply text: -2.4

Inquiry: Item: GGCAAGCAAUAUUACGCAGA
Reply text: -1.23

Inquiry: Similarly, CGGAAGCAAUAUUACGCCAU ?
Reply text: -3.61

Inquiry: Proceed to ACAAAGCAAUAUUACGUUUU
Reply text: -3.53

Inquiry: Please give the result for UGACAGCAAUAUUACGAUUA too.
Reply text: -0.338

Inquiry: One more sequence: CUCGAGCAAUAUUACGCCAU
Reply text: -2.93

Inquiry: Thanks! And GCUGAGCAAUAUUACGGUAA ?
Reply text: -3.07

Inquiry: How about this sequence: GGUAAGCAAUAUUACGUUCA
Reply text: -0.432

* * *

assay.info: self-splicing fitness, log relative to wild type (ln ratio); higher = more splicing; Tetrahymena group I intron in knt gene, E. coli kanamycin selection, DiMSum; sequences stand for … in CUCUCU…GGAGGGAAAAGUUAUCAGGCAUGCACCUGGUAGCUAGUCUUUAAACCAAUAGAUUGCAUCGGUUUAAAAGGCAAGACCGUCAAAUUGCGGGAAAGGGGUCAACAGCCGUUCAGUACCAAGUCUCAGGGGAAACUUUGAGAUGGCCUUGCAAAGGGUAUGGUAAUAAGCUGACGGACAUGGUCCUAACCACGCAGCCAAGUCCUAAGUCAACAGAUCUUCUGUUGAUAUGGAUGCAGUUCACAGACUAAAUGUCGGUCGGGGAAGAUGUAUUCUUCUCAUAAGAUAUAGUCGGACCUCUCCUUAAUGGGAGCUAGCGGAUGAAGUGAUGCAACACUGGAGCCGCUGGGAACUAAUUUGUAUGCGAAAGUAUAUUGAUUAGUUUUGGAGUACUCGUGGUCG
test.conditions: 30 °C
So basically: self-splicing fitness (ln) at -2 or higher? That is Criterion met. Lower than -2? That is Criterion not met.

Inquiry: Dear colleague, could you confirm whether GGCUAGCAAUAUUACGACGC has self-splicing fitness (ln) at or above -2?
Reply text: Criterion met

Inquiry: And what about the sequence UGAAAGCAAUAUUACGCACG ?
Reply text: Criterion met

Inquiry: Param item: UGCCAGCAAUAUUACGUUUG
Reply text: Criterion not met

Inquiry: And then AAUCAGCAAUAUUACGAUGU , what is it?
Reply text: Criterion met

Inquiry: GGCCAGCAAUAUUACGGCAG , same question.
Reply text: Criterion met

Inquiry: Then what about the sequence AUCCAGCAAUAUUACGAGAA ?
Reply text: Criterion not met

Inquiry: Also GUCCAGCAAUAUUACGAGAG , if possible.
Reply text: Criterion met

Inquiry: Another sequence to check: AGGCAGCAAUAUUACGUAGC
Reply text: Criterion not met

Inquiry: Next: AGGUAGCAAUAUUACGUUCG
Reply text: Criterion met

Inquiry: Please answer likewise for AGUAAGCAAUAUUACGAUUC
Reply text: Criterion met

Inquiry: Moving on to CACGAGCAAUAUUACGGCAA
Reply text: Criterion not met

Inquiry: Entry GUCUAGCAAUAUUACGUCCU please
Reply text: Criterion met

Inquiry: Try the sequence CGCGAGCAAUAUUACGGAAG
Reply text: Criterion met

Inquiry: Okay, and UAGGAGCAAUAUUACGGCAC ?
Reply text: Criterion not met

Inquiry: Could you do the same for ACAAAGCAAUAUUACGGACU , please?
Reply text: Criterion met

Inquiry: Entry UAAGAGCAAUAUUACGCACG please
Reply text: Criterion not met

* * *

assay.info: self-splicing fitness, log relative to wild type (ln ratio); higher = more splicing; Tetrahymena group I intron in knt gene, E. coli kanamycin selection, DiMSum; sequences stand for … in CUCUCU…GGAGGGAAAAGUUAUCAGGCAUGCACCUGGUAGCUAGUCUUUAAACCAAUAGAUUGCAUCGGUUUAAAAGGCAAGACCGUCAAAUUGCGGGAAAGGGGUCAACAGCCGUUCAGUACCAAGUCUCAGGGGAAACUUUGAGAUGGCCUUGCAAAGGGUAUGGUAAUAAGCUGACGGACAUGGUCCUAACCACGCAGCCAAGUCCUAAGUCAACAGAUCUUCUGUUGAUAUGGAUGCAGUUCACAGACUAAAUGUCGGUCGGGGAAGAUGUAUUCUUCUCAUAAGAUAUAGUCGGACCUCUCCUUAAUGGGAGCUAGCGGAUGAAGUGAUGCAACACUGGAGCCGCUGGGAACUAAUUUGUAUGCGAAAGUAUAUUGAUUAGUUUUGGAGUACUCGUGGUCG
test.conditions: 37 °C
I'd appreciate it if you could supply self-splicing fitness (ln) values for the items below.

Inquiry: Please look up its self-splicing fitness (ln): CGAUAGCAAUAUUACGCCCC
Reply text: -0.838

Inquiry: What about this sequence? CAGAAGCAAUAUUACGAUGC
Reply text: -2.92

Inquiry: Same lookup for CUUAAGCAAUAUUACGCCUU , please.
Reply text: -2.63

Inquiry: # repeat for AGAUAGCAAUAUUACGGCUG
Reply text: -0.792

Inquiry: One more sequence: ACCCAGCAAUAUUACGGAGG
Reply text: -1.35

Inquiry: Do the same for GUCCAGCAAUAUUACGAUAC please
Reply text: -0.0588

Inquiry: Also need GCAGAGCAAUAUUACGCACG , thanks.
Reply text: -2.05

Inquiry: Now give it for AUGUAGCAAUAUUACGUACG too.
Reply text: -0.212

Inquiry: Same question for UAUCAGCAAUAUUACGAUUC please.
Reply text: -0.0952

Inquiry: Now consider GACUAGCAAUAUUACGCGCC and answer again.
Reply text: -0.0214

Inquiry: Follow-up entry: CAAUAGCAAUAUUACGCGCC
Reply text: -1.04

Inquiry: Can you handle CUCAAGCAAUAUUACGAAAC next?
Reply text: -1.55

Inquiry: Entry to check: GCCUAGCAAUAUUACGGCUC
Reply text: -0.272

Inquiry: Quick one: CACGAGCAAUAUUACGGGUG
Reply text: -2.25

Inquiry: Quick one: UUGCAGCAAUAUUACGUAUC
Reply text: -2.4

Inquiry: Queued: GAGAAGCAAUAUUACGUCCG
Reply text: -0.864

* * *

assay.info: self-splicing fitness, log relative to wild type (ln ratio); higher = more splicing; Tetrahymena group I intron in knt gene, E. coli kanamycin selection, DiMSum; sequences stand for … in CUCUCU…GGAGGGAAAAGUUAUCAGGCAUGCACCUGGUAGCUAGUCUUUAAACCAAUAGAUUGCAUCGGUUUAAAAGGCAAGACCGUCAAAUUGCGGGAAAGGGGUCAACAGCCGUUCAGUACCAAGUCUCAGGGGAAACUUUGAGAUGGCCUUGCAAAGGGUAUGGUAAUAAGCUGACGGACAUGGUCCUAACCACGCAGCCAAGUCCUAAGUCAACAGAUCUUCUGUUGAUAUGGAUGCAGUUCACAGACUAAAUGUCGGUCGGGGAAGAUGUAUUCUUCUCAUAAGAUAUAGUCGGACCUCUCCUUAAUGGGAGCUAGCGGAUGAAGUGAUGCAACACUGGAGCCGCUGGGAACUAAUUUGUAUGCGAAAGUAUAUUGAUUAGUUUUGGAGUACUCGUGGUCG
test.conditions: 37 °C
measurement.name: self-splicing fitness (ln)
Please respond with just the number, no unit label.

Inquiry: // self-splicing fitness (ln) lookup, key: UAAAAGCAAUAUUACGGAAG
Reply text: -0.624

Inquiry: How about this sequence: AUAGAGCAAUAUUACGGAUC
Reply text: -2.14

Inquiry: What would you report for GAUGAGCAAUAUUACGCGAA ?
Reply text: -2.04

Inquiry: Check AAAAAGCAAUAUUACGAAAA too.
Reply text: -0.664

Inquiry: Thanks! And GAAGAGCAAUAUUACGUGAU ?
Reply text: -1.51

Inquiry: For AUUAAGCAAUAUUACGCUUG then?
Reply text: -0.856

Inquiry: Next sequence: GCCGAGCAAUAUUACGGUCU
Reply text: -2.26

Inquiry: Now consider UUAAAGCAAUAUUACGCAGG and answer again.
Reply text: -0.592

Inquiry: Likewise for AUAAAGCAAUAUUACGCUCA ?
Reply text: -0.112

Inquiry: // query: GAAGAGCAAUAUUACGCCAG
Reply text: -0.627

Inquiry: Next sequence: CGACAGCAAUAUUACGGGUA
Reply text: -1.49

Inquiry: Entry to check: ACUUAGCAAUAUUACGAUCU
Reply text: 0.51

Inquiry: Request: ACACAGCAAUAUUACGCACC
Reply text: -0.151

Inquiry: Please answer likewise for UACGAGCAAUAUUACGUACG
Reply text: -2.34

Inquiry: Repeat with UCUCAGCAAUAUUACGUGCC
Reply text: -1.71

Inquiry: Please do the same for AAUUAGCAAUAUUACGCUGU as well.
Reply text: -1.26

Inquiry: Could you do the same for ACAUAGCAAUAUUACGCCAA , please?
Reply text: -2.32

Inquiry: Moving on to AAAGAGCAAUAUUACGGCUA
Reply text: -1.13

Inquiry: And what about the sequence ACAUAGCAAUAUUACGGAAG ?
Reply text: -3.04

Inquiry: And for CGCGAGCAAUAUUACGUACU ?
Reply text: -2.3

Inquiry: Please give the result for GGUUAGCAAUAUUACGUAAG too.
Reply text: -0.436

Inquiry: Then CGGAAGCAAUAUUACGCCAU ?
Reply text: -2.84

Inquiry: What about this sequence? CCUUAGCAAUAUUACGUAGC
Reply text: -1.8

Inquiry: Can you handle CAUUAGCAAUAUUACGCGUU next?
Reply text: -1.48

Inquiry: Likewise for CACGAGCAAUAUUACGCUAC ?
Reply text: -2.5

Inquiry: Then AAGUAGCAAUAUUACGGUGU ?
Reply text: -1.23

Inquiry: One more sequence: CAAAAGCAAUAUUACGGGAG
Reply text: -0.972

Inquiry: Note, next up: UAGGAGCAAUAUUACGCCCG
Reply text: -0.352

Inquiry: Please give the result for UAUGAGCAAUAUUACGUGCC too.
Reply text: -2.28

Inquiry: Try ACAAAGCAAUAUUACGCCGC next.
Reply text: -1.52

Inquiry: Next sequence up: CAAUAGCAAUAUUACGGUUG
Reply text: -1.67

Inquiry: What about CCCUAGCAAUAUUACGGUCU ?
Reply text: -1.72

Inquiry: Now give it for AUUUAGCAAUAUUACGUGUG too.
Reply text: -1.44

Inquiry: Next: UGUGAGCAAUAUUACGCAAA
Reply text: -1.8
